TARGET SYSTEM: human V1a receptor (Homo sapiens, UniProt P37288)
Construct: host or cells: CHO cells
Sequence (P37288 whole entry): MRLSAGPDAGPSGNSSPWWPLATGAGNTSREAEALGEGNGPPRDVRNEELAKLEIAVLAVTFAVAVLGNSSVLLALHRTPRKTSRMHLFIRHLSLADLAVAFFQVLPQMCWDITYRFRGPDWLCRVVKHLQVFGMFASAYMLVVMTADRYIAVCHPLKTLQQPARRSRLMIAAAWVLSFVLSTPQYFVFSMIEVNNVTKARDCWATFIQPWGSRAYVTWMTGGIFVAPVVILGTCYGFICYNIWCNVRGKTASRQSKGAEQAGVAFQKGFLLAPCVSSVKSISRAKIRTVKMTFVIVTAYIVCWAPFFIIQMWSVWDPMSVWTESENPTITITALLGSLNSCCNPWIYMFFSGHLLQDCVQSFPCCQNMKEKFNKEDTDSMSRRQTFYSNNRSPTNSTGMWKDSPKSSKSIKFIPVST
EXPERIMENTAL PROTOCOL: Human vasopressin V1a receptor binding assay
COND: hV1a CHO cell line, competition with 1 nM 3H-AVP; read-out: V1a Ki
// Ki lookup, one value per entry
MEASURED PARAMETER: Ki (nM)

[[record]]
compound = "O=C(NCc1cccc(Br)c1)C(CCC(=O)N1CCN(C2CCCCC2)CC1)N1C(=O)C(N2C(=O)OCC2c2ccccc2)C1C=Cc1ccccc1 (stereo not shown)"
numeric_readout = 0.54

[[record]]
compound = "Cc1cccc(CNC(=O)C(CCC(=O)N2CCN(C3CCCCC3)CC2)N2C(=O)C(N3C(=O)OCC3c3ccccc3)C2C=Cc2ccccc2)c1 (stereo not shown)"
numeric_readout = 0.72

[[record]]
compound = "O=C(NCCc1ccccc1)C(CCC(=O)N1CCN(C2CCCCC2)CC1)N1C(=O)C(N2C(=O)OCC2c2ccccc2)C1C=Cc1ccccc1 (stereo not shown)"
numeric_readout = 3.11

[[record]]
compound = "CC(C)(NC(=O)C(CCC(=O)N1CCN(C2CCCCC2)CC1)N1C(=O)C(N2C(=O)OCC2c2ccccc2)C1C=Cc1ccccc1)c1ccccc1 (stereo not shown)"
numeric_readout = 3.7

[[record]]
compound = "O=C(NC1(c2ccccc2)CCCC1)C(CCC(=O)N1CCN(C2CCCCC2)CC1)N1C(=O)C(N2C(=O)OCC2c2ccccc2)C1C=Cc1ccccc1 (stereo not shown)"
numeric_readout = 1.94

[[record]]
compound = "O=C(NCc1cc(C(F)(F)F)ccc1F)C(CCC(=O)N1CCN(C2CCCCC2)CC1)N1C(=O)C(N2C(=O)OCC2c2ccccc2)C1C=Cc1ccccc1 (stereo not shown)"
numeric_readout = 0.41

[[record]]
compound = "O=C(NC1CCCc2ccccc21)C(CCC(=O)N1CCN(C2CCCCC2)CC1)N1C(=O)C(N2C(=O)OCC2c2ccccc2)C1C=Cc1cccc(F)c1 (stereo not shown)"
numeric_readout = 0.68

[[record]]
compound = "O=C(NCc1cccnc1)C(CCC(=O)N1CCN(C2CCCCC2)CC1)N1C(=O)C(N2C(=O)OCC2c2ccccc2)C1C=Cc1ccccc1 (stereo not shown)"
numeric_readout = 9.8

[[record]]
compound = "COc1cccc(C=CC2C(N3C(=O)OCC3c3ccccc3)C(=O)N2C(CCC(=O)N2CCN(C3CCCCC3)CC2)C(=O)NC2CCCc3ccccc32)c1 (stereo not shown)"
numeric_readout = 1.36

[[record]]
compound = "CC(NC(=O)C(CC(=O)N1CCC(N2CCCCC2)CC1)N1C(=O)C(N2C(=O)OCC2c2ccccc2)C1CCc1cccc(Cl)c1)c1ccccc1 (stereo not shown)"
numeric_readout = 0.073

[[record]]
compound = "O=C(NC1(c2ccccc2)CCCC1)C(CCC(=O)N1CCN(C2CCCCC2)CC1)N1C(=O)C(N2C(=O)OCC2c2ccccc2)C1C=Cc1cccc(Cl)c1 (stereo not shown)"
numeric_readout = 2.1

[[record]]
compound = "CN(Cc1cccc(C(F)(F)F)c1)C(=O)C(CC(=O)N1CCC(N2CCCCC2)CC1)N1C(=O)C(N2C(=O)OCC2c2ccccc2)C1C=Cc1cccc(Cl)c1 (stereo not shown)"
numeric_readout = 0.39

[[record]]
compound = "Cc1ccc(C2(NC(=O)C(CCC(=O)N3CCN(C4CCCCC4)CC3)N3C(=O)C(N4C(=O)OCC4c4ccccc4)C3C=Cc3ccccc3)CC2)cc1 (stereo not shown) [Example 221AP]"
numeric_readout = 3.8

[[record]]
compound = "O=C(NCc1ccccc1Br)C(CC(=O)N1CCC(N2CCCCC2)CC1)N1C(=O)C(N2C(=O)OCC2c2ccccc2)C1CCc1ccccc1 (stereo not shown)"
numeric_readout = 0.9

[[record]]
compound = "COc1cc(CNC(=O)C(CCC(=O)N2CCN(C3CCCCC3)CC2)N2C(=O)C(N3C(=O)OCC3c3ccccc3)C2C=Cc2ccccc2)cc(OC)c1 (stereo not shown)"
numeric_readout = 6.43

[[record]]
compound = "COc1cc(OC)cc(C(C)(C)NC(=O)C(CCC(=O)N2CCN(C3CCCCC3)CC2)N2C(=O)C(N3C(=O)OCC3c3ccccc3)C2C=Cc2ccccc2)c1 (stereo not shown)"
numeric_readout = 4.7


====

TARGET SYSTEM: human V1a receptor (Homo sapiens)
Construct: host or cells: CHO cells
EXPERIMENTAL PROTOCOL: Human vasopressin V1a receptor binding assay
COND: hV1a CHO cell line, competition with 1 nM 3H-AVP; read-out: V1a Ki
This listing pairs compounds with measured Ki.
MEASURED PARAMETER: Ki (nM)

[[record]]
compound = "CC(NC(=O)C(CC(=O)N1CCC(N2CCCCC2)CC1)N1C(=O)C(N2C(=O)OCC2c2ccccc2)C1CCc1ccc(O)cc1)c1ccccc1 (stereo not shown) [Example 594]"
numeric_readout = 19

[[record]]
compound = "CN(Cc1cccc(C(F)(F)F)c1)C(=O)C(CC(=O)N1CCC(N2CCCCC2)CC1)N1C(=O)C(N2C(=O)OCC2c2ccccc2)C1CCc1cccc(Br)c1 (stereo not shown) [Example 617]"
numeric_readout = 0.69

[[record]]
compound = "COc1ccccc1CNC(=O)C(CCC(=O)N1CCN(C2CCCCC2)CC1)N1C(=O)C(N2C(=O)OCC2c2ccccc2)C1C=Cc1ccccc1 (stereo not shown) [Example 220]"
numeric_readout = 3.26

[[record]]
compound = "O=C(NCc1ccncc1)C(CCC(=O)N1CCN(C2CCCCC2)CC1)N1C(=O)C(N2C(=O)OCC2c2ccccc2)C1C=Cc1ccccc1 (stereo not shown) [Example 210]"
numeric_readout = 18.1

